Tested on: Staphylococcus aureus
experiment_notes: Antibacterial activity against methicillin-resistant Staphylococcus aureus ATCC 33591 after 16 to 20 hrs by broth microdilution method
Type: functional
// reported MIC for each item listed
Number in µg/mL, nothing else.

Request: Item O=C1CCc2cc(/C=C/C(=O)N3CC(COc4ccccc4F)C3)cnc2N1 has what recorded MIC?
Result: 1

Request: Which MIC reading was recorded for the compound COc1ccc2oc(C3CN(C(=O)/C=C/c4cnc5c(c4)CCC(=O)N5)C3)c(C)c2c1 ?
Result: 1

Request: Which MIC reading was recorded for the compound Cc1c(C2CN(C(=O)/C=C/c3cnc4c(c3)CN(CCN3CCOCC3)CC(=O)N4)C2)oc2ccccc12 ?
Result: 1

Request: Report MIC for O=C1CCc2cc(/C=C/C(=O)N3CC(COc4ccc(F)cc4)C3)cnc2N1 please.
Result: 0.5

Request: # MIC lookup, item O=C1CCc2cc(/C=C/C(=O)N3CC(c4ccccn4)C3)cnc2N1
Result: 8

Moving on to another compound below.
Request: Which MIC value is on record for Cc1c(C2CN(C(=O)/C=C/c3cnc4c(c3)CNCC(=O)N4)C2)oc2ccccc12 ?
Result: 0.25
